Test system: Human papillomavirus type 1a E7 protein (residues 1-88)
PROTOCOL: HPV1a E7 small-molecule binders, primary screen, biochemical, small-molecule microarray, residues 1-88, 635 nm (AID 1129)
APPLIED_CONDITIONS: small-molecule microarray binding, fluorescence 635 nm; higher = more signal
Hi, to clarify the labels: true covers composite z-score from 1 upward, false covers anything below 1.

Completed entries (count: 5):
MOLECULE: CCCCC(=C=CC[C@H](O)c1ccc(OCCO)cc1)C[C@H](O)c1ccccn1
CATEGORY: true
--
MOLECULE: CCOC(=O)C[C@H]1[C@H](OC(=O)c2ccc(-c3ccccc3)cc2)[C@@H](NC(=O)CC(C)C)c2cc(OCCCO)ccc2N1C(=O)Cc1ccc(OC)cc1
CATEGORY: false
--
MOLECULE: C=CCC(OC(C)=O)[C@@H]1[C@@H](N(Cc2cc3ccccc3o2)C(=O)c2ccc(-c3ccccc3)cc2)c2cc(OCCCO)ccc2N1C(=O)c1ccc2ccccc2n1 (some centres undefined)
CATEGORY: false
--
MOLECULE: COC(=O)Cn1c(C(=O)N(C)C)cc2c1C[C@H]1CN(C(=O)c3ccccc3)[C@@](Cc3ccc(OC)cc3)(C(=O)OC)[C@@H]21
CATEGORY: false
--
MOLECULE: COCCCN1C(=O)[C@@]2(Cc3ccccc31)c1ccccc1C(=O)N(Cc1ccccc1OC)[C@H]2c1ccc(CO)cc1
CATEGORY: false

Task: hey, is composite z-score for this one >= 1? `COC(=O)[C@@]1(Cc2ccccc2)[C@@H]2[C@@H](CC(=O)[C@H]2CC(=O)C(=O)N(C)C)CN1C(=O)c1ccccc1`
Output: false

Task: Kindly determine if composite z-score recorded for `COC(=O)[C@@]1(Cc2ccc(OC)cc2)[C@H]2c3cc(C(=O)N(C)C)n(Cc4ccsc4Br)c3C[C@H]2CN1C(=O)c1ccccc1` is above or exactly 1.
Output: true

Task: Record `CCOC(=O)C1=CC[C@@H](c2ccccc2)N(S(=O)(=O)C[Si](C)(C)C)[C@H]1c1ccccc1` ; criterion: composite z-score no lower than 1. Met?
Output: true

Task: Check the entry `C=C(COC)/C(=C/C[C@H](OC(=O)c1ccncc1)c1ccc(OCCO)cc1)c1cc(C(=O)OC)ccc1OC` : does composite z-score equal or exceed 1?
Output: true

Task: Quick check, composite z-score >= 1? N#Cc1ccc(C(O)C2C=CC3C(=O)N(c4ccccc4)C(=O)C3N2Nc2ccc([N+](=O)[O-])cc2)cc1 (centres undefined)
Output: true

Task: Has `C=CCNC(=O)[C@H]1[C@@H]2C(=O)O[C@@H](c3ccccc3)[C@@H](c3ccccc3)N2[C@@H](c2ccccc2OCCO)[C@]12C(=O)N(C(=O)OCCOC)c1ccccc12` a recorded composite z-score greater than or equal to 1?
Output: true

Task: Exam item: decide whether the reported composite z-score for `CC(C)CNC(=O)[C@@H]1c2ccccc2C(=O)N(C(C)C)[C@H]1c1ccc(CO)cc1` is at least 1.
Output: false

Task: Record `COCCOC(=O)N1C(=O)[C@@]2(c3cc(C#CC4=CCCCC4)ccc31)[C@H](C(=O)N1CCc3cc(OC)c(OC)cc3C1)[C@H]1C(=O)O[C@H](c3ccccc3)[C@H](c3ccccc3)N1[C@@H]2c1ccc(O)cc1` ; criterion: composite z-score no lower than 1. Met?
Output: true

Task: # bool: composite z-score of `CN1C(=O)[C@]2(CCC(=O)OC(C)(C)C)N=C(c3ccc(OCCCO)cc3)O[C@@H]2c2ccccc21` >= 1
Output: true

Origin of values: PubChem BioAssay
